Data provenance: patent US9969738B2

Could you please report measured Ki for the items listed next?
system under test: human NK-1 receptor (Homo sapiens (Human), UniProt P25103)
Sequence (P25103 whole entry): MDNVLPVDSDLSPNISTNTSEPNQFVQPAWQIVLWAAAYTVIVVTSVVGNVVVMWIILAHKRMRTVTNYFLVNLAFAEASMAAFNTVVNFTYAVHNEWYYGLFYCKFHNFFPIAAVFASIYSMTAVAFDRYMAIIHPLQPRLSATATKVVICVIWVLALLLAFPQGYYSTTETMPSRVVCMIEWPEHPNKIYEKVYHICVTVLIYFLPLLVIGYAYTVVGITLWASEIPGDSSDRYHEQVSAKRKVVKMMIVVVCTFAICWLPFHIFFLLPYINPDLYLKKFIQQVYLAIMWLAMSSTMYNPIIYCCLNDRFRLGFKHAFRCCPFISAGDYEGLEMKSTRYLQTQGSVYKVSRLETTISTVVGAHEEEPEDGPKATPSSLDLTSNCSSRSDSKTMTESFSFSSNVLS

structure as smiles: Cc1nsc(-c2nnc3n2CCN(C(=O)c2ccc(Cl)c(F)c2)C3)n1
experimental result: > 30 µM
--
structure as smiles: Cc1nsc(-c2nnc3n2CCN(C(=O)c2ccc(F)c(F)c2)C3)n1
experimental result: > 30 µM

Moving on to the next compound.
Query :: Name the recorded Ki for Cc1nsc(-c2nnc3n2CCN(C(=O)c2ccc(F)c(F)c2F)C3)n1 .
Result :: > 30 µM

----------
method: Determination of plasma protein binding (rapid equilibrium dialysis)
Assay type: in vitro ADME
condition notes: bound drug fraction to plasma protein; equilibrium dialysis 4 hours at 37° C.
value type: Exposure (% rPPB) (%)
Give bare numbers, in %.

structure as smiles: Cc1nsc(-c2nnc3n2CCN(C(=O)c2ccc(F)c(F)c2)C3)n1
value type: Exposure (% rPPB)
unit annotation: %
experimental result: 28

Below are 5 molecules. Give each one its Exposure (% rPPB).
1. Cc1nsc(-c2nnc3n2CCN(C(=O)c2ccc(Cl)c(F)c2)C3)n1
2. Cc1nsc(-c2nnc3n2CCN(C(=O)c2cc(F)c(F)c(F)c2)C3)n1
3. Cc1nsc(-c2nnc3n2CCN(C(=O)c2ccc(F)c(Cl)c2)C3)n1
4. Cc1nsc(-c2nnc3n2CCN(C(=O)c2ccc(F)c(F)c2F)C3)n1
5. Cc1nsc(-c2nnc3n2CCN(C(=O)c2ccc(Cl)cc2)C3)n1

Result ::
[54, 27, 52, 25, 49]
